Tested on: NCI/ADR-RES ovarian
protocol: NCI-60 one-dose screen, 48 h (100 = growth as untreated, 0 = no growth, -100 = all killed)
conditionInfo: 10 µM unless noted
The panel holds about 83,000 compounds, 20% with a hit somewhere; the sample as a whole holds those more often.
Here, each record is paired with measured growth data.
quantityName: growth (%)

INSERT INTO assay_data (compound, quantityname, measured) VALUES
  ('O=C(CNc1cccnc1)Nc1ccc(C(=O)/C=C/c2ccc(Cl)cc2)cc1', 'growth', 98),
  ('O=C(Nc1ccc(-n2ccc3c(NC(=O)c4ccccc4)nccc32)cc1)c1ccc(Cl)c(C(F)(F)F)c1', 'growth', 22.9),
  ('Cc1cc(Nc2ccc(Cl)c(Cl)c2)nc(N)n1', 'growth', 98.3),
  ('Cc1nccc2c3ccc(OCc4cn(Cc5ccc(Br)cc5)nn4)cc3n(CCCc3ccccc3)c12', 'growth', 78.8),
  ('Cc1ncc(CO)c(C(=O)O)c1O', 'growth', 104),
  ('S=c1[nH]nc(Cn2c3ccccc3c3ccncc32)o1', 'growth', 102),
  ('COc1cc(C(=O)NNC(=O)c2ccccc2C(=O)O)cc(OC)c1OC', 'growth', 37.7),
  ('O=C(Nc1ccc(-n2cc(-c3ccncc3)c(-c3ccc(O)c(Cl)c3)n2)cc1)Nc1cccc(Cl)c1Cl', 'growth', 66.7),
  ('CCC1S/C(=N\N=C(/C)c2cc3ccccc3o2)N(c2ccccc2)C1=O (centres undefined)', 'growth', 89),
  ('COc1cc(NC(=O)C#Cc2ccccc2)c(OC)cc1Cl', 'growth', 56.5),
  ('COc1ccccc1NC(=O)COc1ccc(/C=C2/Oc3cc4occc4c(OC)c3C2=O)cc1OC', 'growth', 90.8),
  ('c1ccc([Se]CCCN2CCN(CCC[Se]c3ccccc3)CC2)cc1', 'growth', 101),
  ('CC(=S)Nc1ccccc1', 'growth', 100),
  ('Cc1cc2c(cc1C)N(C(=O)CCl)CCN2C(=O)CCl', 'growth', -49.7);

====

System: MALME-3M melanoma
protocol: NCI-60 one-dose screen, 48 h (100 = growth as untreated, 0 = no growth, -100 = all killed)
conditionInfo: 10 µM unless noted
Compounds without any hit were thinned out: in the full panel of roughly 83,000, 20% have a hit.
quantityName: growth (%)

INSERT INTO measurements (compound, measured) VALUES
  ('NS(=O)(=O)c1ccc(CCN2C(=O)/C(=C\c3ccc(Cl)cc3)C=C2c2ccc(Oc3ccccc3)cc2)cc1', 82),
  ('OCc1cn(-c2ccc(Cl)cc2)nc1-c1ccc(O)cc1', 100),
  ('O=C(Cn1c2ccccc2c2ccncc21)N/N=C/c1c[nH]c2ccccc12', 43.7),
  ('Nc1nc(Cl)cc(NCCCCNc2cc(Cl)nc(N)n2)n1', 145),
  ('O=C(Nc1cccc(-n2ccc3c(NC(=O)c4ccccc4)ncnc32)c1)Nc1ccc(Cl)c(C(F)(F)F)c1', 46.5),
  ('NC(CSC(c1ccccc1)(c1ccccc1)c1ccc(F)cc1)C(=O)O (configuration not stated)', 30.6),
  ('Cc1cc(-c2ccccc2)nc2ccccc12', 99.4),
  ('CC(C)(C)OC(=O)N1CCN(CCn2cc(C(F)(F)F)c3c(Cl)ncnc32)CC1', 112),
  ('Nn1c(CN2CCN(c3cc4c(cc3F)c(=O)c(C(=O)O)cn4C3CC3)CC2)n[nH]c1=S', 94.6),
  ('COc1ccc(NC(=O)Nc2ccc(-c3ccc(OC)c(OC)c3)nc2C)cc1', 44.1),
  ('CC(=O)c1cc2c(N)c(C(=O)Nc3cccc(Cl)c3)sc2nc1C', 102),
  ('O=C(Nc1ccc(-n2cc(-c3ccncc3)c(-c3ccc(O)c(Cl)c3)n2)cc1)c1ccc(Cl)c(C(F)(F)F)c1', 25);

====

System: SK-OV-3 ovarian
protocol: NCI-60 one-dose screen, 48 h (100 = growth as untreated, 0 = no growth, -100 = all killed)
conditionInfo: 10 µM unless noted
This is part of a sample that, as a whole, favours compounds with a hit. Of some 83,000 tested, about 20% had one in any assay.
quantityName: growth (%)

INSERT INTO assay_data (compound, measured) VALUES
  ('COc1ccc(Cl)cc1NC(=O)c1cc2c([nH]1)-c1nc(NC(=O)C(C)C)sc1CC2', 78.1),
  ('COc1ccc(-c2c(C#N)cnc(N)c2-c2nc3cc(C)c(C)cc3[nH]2)cc1', 46),
  ('COc1cc(/C=C\c2cc(/C=C\c3ccc(O)c(OC)c3)n(C(=O)CNc3ccccc3OC)n2)ccc1O', 83.8),
  ('O=C(NCCNc1nccc(-c2c(-c3cccc(O)c3)nc3sccn23)n1)c1cc(N2CCOCC2)cc(C(F)(F)F)c1', 94),
  ('Cc1ncc(CO)c(C(=O)O)c1O', 104),
  ('CC(=O)Nc1ccc([I+]c2ccc([N+](=O)[O-])cc2)cc1', 94.4),
  ('O=C1COc2ccccc2C(=O)N1CCCCN1CCCCC1', 80.4),
  ('COc1ccc(-c2[nH]c3ccccc3c2/C=C(\C#N)S(=O)(=O)c2ccccc2)cc1', 29.2),
  ('COc1ccc(C2CC(c3cc(Cl)c(C)cc3OC)=NN2c2ccc(S(N)(=O)=O)cc2)cc1OC (stereo not given)', 116),
  ('COC(=O)c1ccc(NC(N)=NCC(C)(C)COc2ccc(C(F)(F)F)cc2)nc1', 106);

====

Here, each record is paired with measured growth data.
Tested on: SF-268 CNS
protocol: NCI-60 one-dose screen, 48 h (100 = growth as untreated, 0 = no growth, -100 = all killed)
conditionInfo: 10 µM unless noted
Compounds without any hit were thinned out: in the full panel of roughly 83,000, 20% have a hit. The source made the active and inactive calls. Rule for the calls: active = growth percent below 10; inactive = the rest.
quantityName: growth

INSERT INTO measurements (compound, measured) VALUES
  ('O=C(/C=C/c1ccco1)c1cccc(Nc2nc(Nc3ccccc3)nc(Nc3ccccc3)n2)c1', '92.9% (inactive)'),
  ('Cc1ccc(=O)n(-c2ccc(Br)cc2F)c1', '104% (inactive)'),
  ('CCc1cccc(-c2ccccc2)c1', '108% (inactive)'),
  ('O=C(O)c1ccc2nc(-c3ccc(OCCCCCOc4ccc(-c5nc6ccc(C(=O)O)cc6[nH]5)cc4)cc3)[nH]c2c1', '156% (inactive)'),
  ('CCCCCCCCN(CCCCCCCC)CC(O)c1cc(-c2ccccc2)nc2ccc(OC)cc12 (centres undefined)', '38.3% (inactive)'),
  ('O=C(N/N=C/c1ccccc1O)c1ccccc1O', '36.6% (inactive)'),
  ('Cc1ccc(N(CC2=NCCN2)c2cccc(O)c2)cc1', '107% (inactive)'),
  ('CC1CCc2cc(F)cc3c(=O)c(C(=O)O)cn1c23 (centres undefined)', '105% (inactive)'),
  ('COC(=O)c1oc2c(C(C)=O)c(OCCN3CCCCC3)ccc2c1C', '95.4% (inactive)'),
  ('COc1ccc(-c2nnc(SCC(=O)N3CCN(c4cc5c(cc4F)c(=O)c(C(=O)O)cn5C4CC4)CC3)o2)cc1OC', '104% (inactive)'),
  ('COc1cc(Br)c(-c2nc(-c3ccccc3)c(-c3ccccc3)n2Cc2ccccc2)cc1OC', '67.9% (inactive)'),
  ('Fc1cccc(F)c1C#Cc1ccc2cccnc2c1', '88.6% (inactive)'),
  ('c1nc(SC2=NCCN2)c2[nH]cnc2n1', '46.5% (inactive)'),
  ('Clc1ccc2c(c1)nnn1c3ncccc3c(Br)c21', '60.9% (inactive)'),
  ('C[C@H]1C=C(C[C@@H](O)CCCCCCCCCC[C@@H](O)[C@H]2CCC(=O)O2)C(=O)O1', '115% (inactive)'),
  ('Cc1cc2c(cc1C)N(C(=O)CCl)CCN2C(=O)CCl', '-33.4% (active)'),
  ('COc1cc2ncnc(Oc3ccc(NC(=O)Nc4ccc(CN5CCOCC5)c(C(F)(F)F)c4)c4ccccc34)c2cc1OC', '23.3% (inactive)'),
  ('Cc1cc(O[C@@H]2O[C@@H](C)[C@H](O)[C@@H](O)[C@H]2O)c2c3c(c(O[C@@H]4O[C@@H](C)[C@H](O)[C@@H](O)[C@H]4O)cc2c1)C(=O)c1c(O)cccc1C3=O', '56.3% (inactive)'),
  ('COc1ccc(SC2c3ccc(O)cc3Oc3nc(N)c(C#N)c(N)c32)cc1 (centres undefined)', '57.3% (inactive)'),
  ('COc1ccc(-n2c(-c3ccc(NC(=O)CCCl)cc3)nnc2-c2cc(OC)c(OC)c(OC)c2)cc1', '78.6% (inactive)'),
  ('CCC1S/C(=N\N=C(/C)c2cc3ccccc3o2)N(c2ccccc2)C1=O (centres undefined)', '202% (inactive)'),
  ('Cc1c(Cl)ccc2c(C(=O)Cl)cc(-c3ccccc3)nc12', '102% (inactive)'),
  ('CCCCCC/C=N/Nc1ccc([N+](=O)[O-])cn1', '103% (inactive)'),
  ('CCN(CC)CC(=O)Nc1c(C)cccc1C', '108% (inactive)'),
  ('CCn1c(SC)nnc1-c1cc2c([nH]c3ccccc32)c(-c2cccc(O)c2)n1', '32.4% (inactive)'),
  ('O=C(Nc1cccc([N+](=O)[O-])c1)c1ccc2ccccc2c1O', '71.7% (inactive)'),
  ('CCn1c(SCC(=O)c2ccc(Br)cc2)nnc1-c1cc2c([nH]c3ccccc32)c(-c2cccc(O)c2)n1', '72.5% (inactive)'),
  ('Nc1ncnc2c1ncn2C1OC(COC(c2ccccc2)(c2ccccc2)c2ccccc2)C(O)C1O (centres undefined)', '100% (inactive)'),
  ('CS(=O)(=O)OCC(COS(C)(=O)=O)C(c1ccccc1)c1ccccc1', '109% (inactive)'),
  ('CC(=O)n1cc(/C=C2\N=C(c3ccc(Cl)cc3)N(c3ccc(S(=O)(=O)Nc4nccs4)cc3)C2=O)c2ccccc21', '83% (inactive)'),
  ('COc1cc(-c2nc3sc(C)cn3c2/C=C2\C(=O)Nc3ccccc32)c(Br)c(OC)c1OC', '54.1% (inactive)'),
  ('O=c1c2ccccc2sc2c(NCCN3CCOCC3)nc3ccccc3c12', '66.9% (inactive)'),
  ('Nc1ncc(-c2ccc3ncnc(Nc4ccc(F)c(Cl)c4)c3c2)cn1', '54.9% (inactive)'),
  ('COc1ccc(C2=NN(C(=O)COc3ccc(Cl)cc3)C(O)(c3cc(F)c(Cl)cc3Cl)C2)cc1 (centres undefined)', '102% (inactive)');
